System: COLO 205 colon
assay.notes: NCI-60 one-dose screen, 48 h
condition: 10 µM unless noted
Compounds without any hit were thinned out: in the full panel of roughly 83,000, 20% have a hit. Active and inactive are the calls of the source. How the source made its calls: active means growth percent below 10; inactive means the rest.
The categories you may choose from are true (1) for active, false (0) for inactive

In: Write down the call the test reported for this compound. Item: CCSc1nc(NC)c2cc(-c3ccc(C(F)(F)F)cc3)ccc2n1
Out: false (0)

In: Write down the call the test reported for this compound. Item: N#Cc1c(NC(=O)c2ccccc2)sc2c1CCC(=O)C2
Out: true (1)

// switching to the query compound
In: Write down the call the test reported for this compound. Item: O=C1/C(=C/c2ccc(Cl)cc2)COc2ccc(O)cc21
Out: false (0)

---

Tested on: LOX IMVI melanoma
assay.notes: NCI-60 one-dose screen, 48 h (100 = growth as untreated, 0 = no growth, -100 = all killed)
condition: 10 µM unless noted
The panel holds about 83,000 compounds, 20% with a hit somewhere; the sample as a whole holds those more often.
In this section, each of the molecules is paired with its reported growth.
Please state the figure in %; there is no need to write the unit.

growth for COc1cccc(NC(=O)Cn2cc(CN3CCN(c4ccnc5cc(Cl)ccc45)CC3)nn2)c1 is 86.8

growth for CN(C)c1ccc(/C=C/C(=O)c2ccc(-n3cc(CN4CCN(c5cc6c(cc5F)c(=O)c(C(=O)O)cn6C5CC5)CC4)nn3)cc2)cc1 is 20.3

growth for Cc1cccc(N2CCN(CC(O)COc3ccc(Cl)cc3)CC2)c1 (centres undefined) is 97.6

growth for c1cnc2[nH]cc(-c3csc(-c4cn(CCCN5CCOCC5)c5ccccc45)n3)c2c1 is 30.6

growth for CCCNC(=O)Oc1ccc(/C(=C(/C)Cc2ccc(OC)cc2)c2ccc(OCCCN(C)C)cc2)cc1 is 73.4

New cases:
growth for CCCCCOc1ccc(C(=O)/C(Br)=C/C(=O)O)cc1 is 86.4

growth for N#Cc1cnc(NCCc2ccncc2)nc1-n1cnc2ccccc21 is 41.2

growth for Nc1c(C(=O)Nc2ccccc2Cl)sc2nc3c(cc12)C(O)CCC3 (centres undefined) is 45.5

growth for Cc1ccc(-c2csc(NC(=O)CN3CCN(c4cc5c(cc4F)c(=O)c(C(=O)O)cn5C4CC4)CC3)n2)cc1 is 0.737

---

Test system: PC-3 prostate
assay.notes: NCI-60 one-dose screen, 48 h (100 = growth as untreated, 0 = no growth, -100 = all killed)
condition: 10 µM unless noted
This is part of a sample that, as a whole, favours compounds with a hit. Of some 83,000 tested, about 20% had one in any assay. Calls of active or inactive are those of the source. How the source made its calls: active means growth percent below 10; inactive means the rest.
metric.name: growth

Solved cases (5 shown):
growth for CNC(=O)c1cc(Oc2ccc3nc(NC(C)=O)sc3c2)ccn1 is 96.3% (inactive)

growth for CCOC(=O)c1ccc2[nH]c(O)c(C(=Nc3ccc(N(C)C(=O)CN4CCN(C)CC4)cc3)c3ccccc3)c2c1 is 4.9% (active)

growth for N#Cc1cccc(-c2c(-c3ccc4ccccc4c3)oc3ccccc3c2=O)c1 is 34.1% (inactive)

growth for O=[N+]([O-])/C(=C/C=C/c1ccccc1)c1ccccc1 is 43.6% (inactive)

growth for CS(=O)(=O)Nc1cc(-c2ccc3ncnc(Nc4ccc5c(cnn5Cc5ccccn5)c4)c3c2)cnc1Cl is 72.8% (inactive)

New cases:
growth for Nc1ncnc2c1N=C(c1ccc3c(c1)OCO3)CC(c1cccc(Nc3ccnc4cc(Cl)ccc34)c1)N2 (configuration not stated) is 54.2% (inactive)

---

Test system: A498 renal
assay.notes: NCI-60 one-dose screen, 48 h
condition: 10 µM unless noted
About 83,000 compounds went through this panel and 20% of them were active in at least one assay; those are over-represented in the sample as a whole. Active and inactive are the calls of the source. How the source made its calls: active means growth percent below 10; inactive means the rest.
The categories you may choose from are active, inactive

In: Write down the call the test reported for this molecule. Item: Cc1c(-n2nnc(-c3nc4ccccc4s3)c2N)c(=O)n(-c2ccccc2)n1C
Out: inactive

// switching to the query molecule
In: Write down the call the test reported for this molecule. Item: Oc1ccc(CCn2c(O)c(/C=C3\CN=c4ccccc4=N3)sc2=S)cc1
Out: inactive

---

System: UACC-62 melanoma
assay.notes: NCI-60 one-dose screen, 48 h
condition: 10 µM unless noted
Compounds without any hit were thinned out: in the full panel of roughly 83,000, 20% have a hit. Active and inactive are the calls of the source. Rule for the calls: active = growth percent below 10; inactive = the rest.
The categories you may choose from are 1 (yes) = active, 0 (no) = inactive

In: Write down the call the test reported for this molecule. Item: O=C(Nc1cc(Cl)ccc1O)c1ccc(Nc2ccnc(C(F)(F)F)c2)cc1
Out: 0 (no)

In: Write down the call the test reported for this molecule. Item: O=C(NCc1ccccc1)Nc1ccccc1CNc1nc(Nc2ccc(OCCN3CCCC3)cc2)ncc1Cl
Out: 0 (no)

In: Write down the call the test reported for this molecule. Item: O=C1c2cccnc2C(=O)c2c1c(C(=O)NCCn1ccnc1)c1ccccn21
Out: 1 (yes)

In: Write down the call the test reported for this molecule. Item: COc1cc(N2C(=O)[C@H](O)C2c2ccc(SC)cc2)cc(OC)c1OC (stereo partly drawn)
Out: 0 (no)

In: Write down the call the test reported for this molecule. Item: O=C(CN1C(=O)CCC1=O)Nc1ncc(Cc2ccc(F)cc2)s1
Out: 0 (no)

In: Write down the call the test reported for this molecule. Item: Nc1ncnc2c1N=C(c1ccc(Cl)cc1)CC(c1ccc3c(c1)OCO3)N2 (stereo not drawn)
Out: 0 (no)

New cases:
In: Write down the call the test reported for this molecule. Item: COc1ccc(-c2nnc(-c3ccc4c(c3)nc(-c3ccncc3)n4C3CCCCC3)o2)cc1
Out: 0 (no)

In: Write down the call the test reported for this molecule. Item: C/C(=N/O)c1ccc(F)cc1
Out: 0 (no)

In: Write down the call the test reported for this molecule. Item: O=C1Nc2ccc(I)cc2C1=O
Out: 0 (no)

In: Write down the call the test reported for this molecule. Item: C=CCc1c2c(c(OC)c3ccoc13)C(=O)/C(=C/c1ccccc1OC)O2
Out: 0 (no)

In: Write down the call the test reported for this molecule. Item: COc1cc2c(c(OC)c1OC)-c1ccc(OC)c(=O)cc1[C@@H](NC(=O)CCl)CC2
Out: 0 (no)

In: Write down the call the test reported for this molecule. Item: C#COc1cccc(Nc2ncnc3ncc(NC(=O)CCl)cc23)c1
Out: 0 (no)

In: Write down the call the test reported for this molecule. Item: C[C@@H]1CCC[C@H]1CC(N)C(=O)O (stereo partly drawn)
Out: 0 (no)

---

Test system: HT29 colon
assay.notes: NCI-60 one-dose screen, 48 h
condition: 10 µM unless noted
About 83,000 compounds went through this panel and 20% of them were active in at least one assay; those are over-represented in the sample as a whole. Activity calls are given as the source filed them. How the source made its calls: active means growth percent below 10; inactive means the rest.
The categories you may choose from are 1 for active, -1 for inactive

In: Write down the call the test reported for this compound. Item: CCn1c(=S)sc2c(Nc3ccc(F)cc3)nc(-c3cccnc3)nc21
Out: -1

In: Write down the call the test reported for this compound. Item: CC1(c2ccccc2O)NN=C(/N=C/c2cccc([N+](=O)[O-])c2)N1C(Cc1c[nH]c2ccccc12)C(=O)O (stereo not given)
Out: -1

In: Write down the call the test reported for this compound. Item: CCCCNC(=O)Oc1ccc(/C(=C(/CC)Cc2ccccc2)c2ccc(OCCN3CCCCCC3)cc2)cc1
Out: 1

In: Write down the call the test reported for this compound. Item: O=C1/C(=C/c2ccc(F)cc2)COc2ccc(O)cc21
Out: -1

In: Write down the call the test reported for this compound. Item: COc1ccc2c(c1)[n+]([O-])c(C(=O)/C=C/C=C(\Cl)c1cc(OC)c(OC)c(OC)c1)c(C)[n+]2[O-]
Out: -1

In: Write down the call the test reported for this compound. Item: O=C(CCCCCCN1CC(=O)N2[C@H](c3cc(Br)cs3)c3[nH]c4ccccc4c3C[C@H]2C1=O)NO
Out: -1

New cases:
In: Write down the call the test reported for this compound. Item: O=Nc1c(-c2c(O)[nH]c3ncccc23)[nH]c2ccccc12
Out: -1

In: Write down the call the test reported for this compound. Item: COC(=O)/C(CCC=C(C)C)=C1\[C@@H](OC(C)=O)C[C@@]2(C)[C@H]1C[C@@H](O)[C@H]1[C@@]3(C)CC[C@H](NCCN)[C@@H](C)[C@@H]3CC[C@@]12C
Out: -1

---

Test system: NCI-H226 lung
assay.notes: NCI-60 one-dose screen, 48 h (100 = growth as untreated, 0 = no growth, -100 = all killed)
condition: 10 µM unless noted
About 83,000 compounds went through this panel and 20% of them were active in at least one assay; those are over-represented in the sample as a whole.
Output met for growth not less than 80%; output not met otherwise.

Some solved cases for reference:
In: Evaluate N#CC1C=CN(CC(N)=O)c2ccc3cccnc3c21 (centres undefined) : growth at minimum 80%?
Out: met

In: Evaluate C[C@]12C=CC(=O)C=C1CCC1C2[C@@H](O)C[C@@]2(C)C1CC[C@]2(O)C(=O)COC(=O)CCC(=O)O (some centres undefined) : growth at minimum 80%?
Out: met

In: Evaluate Fc1ccc(Nc2nc3nonc3nc2Nc2ccc(I)cc2)cc1 : growth at minimum 80%?
Out: not met

New cases:
In: Evaluate N#CC1=C(c2ccc(Cl)cc2)Nc2c(c(-c3ccc(Cl)cc3)nn2-c2ccccc2)C12C(=O)Nc1ccc(Cl)cc12 (centres undefined) : growth at minimum 80%?
Out: not met

In: Evaluate N#C/C(=C/c1ccc([N+](=O)[O-])cc1)n1nnc2cc(F)c(F)cc21 : growth at minimum 80%?
Out: met

In: Evaluate Cc1ccc2c(n1)C(=O)c1[nH]c3ccccc3c1C2=O : growth at minimum 80%?
Out: not met

In: Evaluate O=[N+]([O-])C1C(c2ccccc2)C12c1ccccc1-c1ccccc12 (centres undefined) : growth at minimum 80%?
Out: not met

In: Evaluate C#Cc1cccc(Nc2ncnc3ccc(-c4cncc(NS(C)(=O)=O)c4)cc23)c1 : growth at minimum 80%?
Out: not met

In: Evaluate O=C(NCc1ccccc1)Nc1ccccc1CNc1nc(Nc2ccc(OCCN3CCCC3)cc2)ncc1Cl : growth at minimum 80%?
Out: met
